Below is a list of entries, each paired with its recorded IC50, TNFα cytotoxicity assay (WEHI-13VAR cells) value.
Target: tumor necrosis factor alpha (TNFα) (human, UniProt P01375 77-233)
Sequence (P01375 77-233 limits assumed): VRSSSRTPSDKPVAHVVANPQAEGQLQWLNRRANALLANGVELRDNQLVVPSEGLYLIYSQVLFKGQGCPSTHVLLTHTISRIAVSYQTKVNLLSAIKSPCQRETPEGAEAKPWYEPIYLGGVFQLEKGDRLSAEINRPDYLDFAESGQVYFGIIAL
Test: cell-based or functional assay
Expressed in nM, but write only the number.

Worked examples, 2 binders total:
{"Binder": "MAb 1777 (antibody, V domains shown, IgG1/kappa, CHO; also called H1684/L332) VH: EVQLVESGGGLIQPGGSLRLSCAVSGLNVSRDYMSWVRQAPGKGLEWISVIYRGGATMYADSVKGRFTISRDTSKNTVFLQMSRLKVADTAVYYCARNYYGSTIDYWGQGTLVTVSS VL: EIVLTQSPVTLSVPPGERASLSCRASQNIYTAVAWYQQKPGQAPRLLIYGASTRATGIPARFSGGGSGTDYTLTISSLESEDFAVYHCQQWHSWPLTFGGGTKLEIK", "Output unit": "nM", "Number": 7}
{"Binder": "MAb 2019 (antibody, V domains shown, IgG1/kappa, CHO; also called H1844/L459) VH: EVQLVESGGGLIQPGGSLRLSCAVSGLNVSRDYMSWVRQAPGKGLEWISVIYRGGVTMYADSVKGRFTISRDTSKNTVFLQMSRLKVADTAVYYCARNYYGSTLDYWGQGTLVTVSS VL: EIVLTQSPVTLSVPPGERASLSCRASQNIYTAVAWYQQKPGQAPRLLIYNASTRATGIPARFSGGGSGTDYTLTISSLESEDFAVYHCQQWHSWPLTFGGGTKLEIK", "Output unit": "nM", "Number": 0.3}

Data request: State, in one line, measured IC50, TNFα cytotoxicity assay (WEHI-13VAR cells) of MAb 698 (antibody, V domains shown, also called 131 E11; H1272/L250) VH: EVQLLESGGGLIQPGGSLRLSCAASGFTVGNNYMSWVRQAPGKGLEWVSVIYSAGSTYYADSVKGRFIISRDNSKDTVYLQMNSLRVDDTAVYYCARNYYGSTYDYWGQGTLVTVSS VL: EIVLTQSPVTLSVPPGERASLSCRASQNIYTAVAWYQQKPGQAPRLLIYGASTRATGIPARFSGGGSGTDYTLTISSLESEDFAVYHCQQYHSWPLTFGGGTKLEIK
Data returned: 152

Data request: Look up IC50, TNFα cytotoxicity assay (WEHI-13VAR cells) of MAb 2060 (antibody, V domains shown, IgG1/kappa, CHO; also called H1844/L471) VH: EVQLVESGGGLIQPGGSLRLSCAVSGLNVSRDYMSWVRQAPGKGLEWISVIYRGGVTMYADSVKGRFTISRDTSKNTVFLQMSRLKVADTAVYYCARNYYGSTLDYWGQGTLVTVSS VL: EIVLTQSPATLSVSPGERASLSCRASQNIYTAVAWYQQKPGQAPRLLIYNASTRATGIPARFSGGGSGTDYTLTISSLESEDFAVYHCQQWHSWPLTFGGGTKLEIK and report it.
Data returned: 0.14

Data request: Please give measured IC50, TNFα cytotoxicity assay (WEHI-13VAR cells) of the following entry: MAb 714 (antibody, V domains shown, also called 141 A10; H1277/L250) VH: EVQLVESGGGLVQPGGSLKLSCAASGFTVSSNYMSWVRQAPGKGLEWVSVIYRGGSTYYADSVKGRFTISRDISRNMVYLQMNSLRAEDTAVYYCARNYYGSTYDYWGQGTLVTVSS VL: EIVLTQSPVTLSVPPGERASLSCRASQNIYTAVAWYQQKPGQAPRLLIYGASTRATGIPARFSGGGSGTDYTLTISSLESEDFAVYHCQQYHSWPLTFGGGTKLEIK
Data returned: 7.75

Data request: Please give the documented IC50, TNFα cytotoxicity assay (WEHI-13VAR cells) of MAb 1895 (antibody, V domains shown, IgG1/kappa, CHO; also called H1596/L459) VH: EVQLVESGGGLIQPGGSLRLSCAVSGLNVSRDYMSWVRQAPGKGLEWISVIYRGGATMYADSVKGRFTISRDTSKNTVFLQMSRLKVADTAVYYCARNYYGSTHDYWGQGTLVTVSS VL: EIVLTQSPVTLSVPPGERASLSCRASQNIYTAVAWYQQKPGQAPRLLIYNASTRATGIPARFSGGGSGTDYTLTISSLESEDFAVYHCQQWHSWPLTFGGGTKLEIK
Data returned: 0.89
